Reference source: FireProtDB (doi:10.1110/ps.03176803)

Recorded measurements of Tm, one per entry
B1: Guanyl-specific ribonuclease Sa, P05798 (parent)
chain: DVSGTVCLSALPPEATDTLNLIASDGPFPYSQDGVVFQNRESVLPTQSYGYYHEYTVITPGARTRGTRRIITGEATQEDYYTGDHYATFSLIDQTC

variants of: B1; settings: Kitasatospora aureofaciens; pH 5.5; Thermal; DSC; sodium acetate potassium chloride 0.01 M 0.05 M; reversible: yes (90-95%); structure 1RGG; whole UniProt chain shown
Express your answer in °C, writing the number without its unit.

Requested field: Tm. Item: R65A
51.1

Requested field: Tm. Item: E74K
56

Requested field: Tm. Item: H85Q
55.5

Requested field: Tm. Item: E41K
50.5
